System: PD20 + D2 cells
Assay: cytotoxicity assay
Conditions: PD20 + D2, cisplatin alone
pEC50: −log10 of the molar value.
endpointLabel: pEC50

>>> measuredvalue("N.N.[Cl][Pt][Cl] [cisplatin, reference compound]")
4.91

* * *

Test system: H596 cells
Assay: colony-forming assay
Assay type: cell-based, human
Conditions: read-out: EC50 of cell killing; H596, single agent
pEC50: −log10 of the molar value.
endpointLabel: pEC50

>>> measuredvalue("N.N.[Cl][Pt][Cl] [cisplatin, reference compound]")
6.31
